# conditionDetails: buffer; pH 7.4; 200.0 µM
measuredMetric: solubility kinetic (µg/mL)
Express your answer in µg/mL, writing the number without its unit.

Here are 3 compounds together with their reported answers.
CC(C)Sc1nc(SCC(=O)O)c2c3c(sc2n1)COC(C)(C)C3	56.9
C=CCC(=O)N1CCCC(CO)(Cc2ccc(F)cc2F)C1 (centres undefined)	41.8
O=[N+]([O-])c1cccc(S(=O)(=O)N2CCCCC2)c1	37.5

The compound identified as CCOc1ccc(N=Cc2ccc3ccccc3c2)cc1 registered its solubility kinetic at 1.5

###

A collection of compounds and their measured solubility kinetic
# conditionDetails: buffer; pH 7.4; 200.0 µM
Reply numerically in µg/mL, unit not repeated.

OCCCNc1nc(-c2ccc(Cl)cc2)nc2ccccc12	1.8
O=C(Nc1ccccc1C(=O)Nc1ccccc1)c1ccco1	0.9

// solubility kinetic value for C(=C\c1ccccc1)/CN1CCN(Cc2ccc3c(c2)OCO3)CC1 : 43

The value of solubility kinetic measured for the compound O=C1NC(=S)N/C1=C\C=C\c1ccccc1 turned out to be 1.7
